# Assay System: monkey GPC3-His protein (monkey)
# Test Name: ELISA, monkey GPC3-His coated; antibody 0.53 nM
Overview of recorded OD450 nm for various binders
Hey, just send me the number, nothing else.

// below: answered binders
hAb003LH3L1 (antibody, human IgG1, V domains shown) VH: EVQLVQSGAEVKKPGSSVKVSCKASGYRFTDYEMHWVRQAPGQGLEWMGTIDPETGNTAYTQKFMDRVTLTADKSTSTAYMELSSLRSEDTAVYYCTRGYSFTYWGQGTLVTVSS VL: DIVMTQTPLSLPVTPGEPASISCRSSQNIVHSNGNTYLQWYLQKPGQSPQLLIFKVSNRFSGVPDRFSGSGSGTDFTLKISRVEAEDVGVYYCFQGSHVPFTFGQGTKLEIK : 2.22
hAb005LH2L1 (antibody, human IgG1, V domains shown) VH: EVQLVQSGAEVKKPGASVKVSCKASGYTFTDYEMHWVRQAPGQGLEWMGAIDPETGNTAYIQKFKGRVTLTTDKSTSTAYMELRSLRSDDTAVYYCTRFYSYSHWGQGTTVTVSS VL: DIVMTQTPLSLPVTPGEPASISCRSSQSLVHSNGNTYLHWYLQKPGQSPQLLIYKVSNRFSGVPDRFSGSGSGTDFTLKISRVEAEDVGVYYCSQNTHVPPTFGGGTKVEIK : 1.28

With those in mind, consider the next binder.
Ask: Give recorded OD450 nm. hAb007LH2L1 (antibody, human IgG1, V domains shown) VH: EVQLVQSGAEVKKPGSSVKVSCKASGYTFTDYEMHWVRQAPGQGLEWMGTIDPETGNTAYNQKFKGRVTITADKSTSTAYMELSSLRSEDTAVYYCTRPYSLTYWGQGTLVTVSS VL: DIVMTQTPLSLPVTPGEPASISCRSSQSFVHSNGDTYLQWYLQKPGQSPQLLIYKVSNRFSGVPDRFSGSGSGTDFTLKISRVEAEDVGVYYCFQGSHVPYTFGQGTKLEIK
Reply: 2.31

These entries and their values trace back to patent US20260116991A1.
